Listed next: entries and their corresponding inhibition.
Species on record: Homo sapiens
assayExplanation: Inhibition of GCase in human leukocytes extracts at 1 mM using 4-methylumbelliferyl-beta-D-glucoside substrate incubated for 1 hr by spectrophotometry relative to untreated control
Assay type: cell-based
Answer format reminder: number followed by unit.

// below: answered molecules
smi=CCCCCCCCCCCC[C@H]1NC[C@@H](O)[C@@H](O)[C@@H]1O resulttype=inhibition result=95%
smi=CCCCCCCC[C@H]1NC[C@@H](O)[C@@H](O)[C@@H]1O resulttype=inhibition result=100%

Query block: Could you share which inhibition value was measured for CCCCCCCC[C@H]1[C@@H](O)[C@H](O)[C@H](O)CN1C ?
Result block: 50%
